assay.target: KRAS G12S (Homo sapiens (Human), UniProt P01116+P62937, G12S)
Sequence (P01116-2 other isoform, or with tags, fused parts or gaps G12S, one chain of several): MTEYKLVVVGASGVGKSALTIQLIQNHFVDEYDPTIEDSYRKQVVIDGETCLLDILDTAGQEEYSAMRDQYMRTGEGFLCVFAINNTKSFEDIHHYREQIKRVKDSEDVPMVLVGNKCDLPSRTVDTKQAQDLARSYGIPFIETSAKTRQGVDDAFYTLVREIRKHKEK
assay.explanation: Ras-Raf (BRAF RBD) disruption / FRET / MOA assay, KRAS G12S
Type: biochemical
condition.notes: Ras-Raf disruption/FRET/MOA assay; class symbols; read-out: KRAS G12S FRET data IC50
Method: The purpose of this biochemical assay is to measure the ability of test compounds to facilitate ternary complex formation between a nucleotide-loaded Ras isoform and cyclophilin A; the resulting ternary complex disrupts binding to a BRAF^RBD construct, inhibiting Ras signaling through a RAF effector. Compound is present in plate wells as a 10-point 3-fold dilution series starting at a final concentration of 30 μM. […]
metric.name: IC50

Query: Input C=CC(=O)Nc1csc(C(=O)N(C)[C@H](C(=O)N[C@H]2Cc3cc(O)cc(c3)-c3ccc4c(c3)c(c(-c3cccnc3[C@H](C)OC)n4CC)CC(C)(C)COC(=O)[C@@H]3CCCN(N3)C2=O)C(C)C)n1 (atropisomer, axis not shown) [Example A259] , output reported IC50.
Response: 1000 to 10000 nM

Query: Input C=CC(=O)N1CCC(F)(C(=O)N(C)[C@H](C(=O)N[C@H]2Cc3cccc(c3)-c3ccc4c(c3)c(c(-c3cccnc3[C@H](C)OC)n4CC)CC(C)(C)COC(=O)[C@@H]3CCCN(N3)C2=O)C(C)C)CC1 (atropisomer, axis not shown) [Example A518] , output reported IC50.
Response: 100 to 1000 nM

Query: Input C=CC(=O)N1CC(OCC(C(=O)N[C@H]2Cc3cc(cc(C(F)F)c3)-c3ccc4c(c3)c(c(-c3cccnc3[C@H](C)OC)n4CC)CC(C)(C)COC(=O)[C@@H]3CCCN(N3)C2=O)C(C)C)C1 (mixture of isomers) [Example A450] , output reported IC50.
Response: > 10000 nM

Query: Input CO[C@@H](C)c1ncccc1-c1c2c3cc(ccc3n1CC(F)(F)F)-c1csc(n1)C[C@H](NC(=O)[C@H](C(C)C)N(C)C(=O)N1CCC3(CC1)CN(C(=O)/C=C/CF)C3)C(=O)N1CCC[C@H](N1)C(=O)OCC(C)(C)C2 (atropisomer, axis not shown) [Example A602] , output reported IC50.
Response: 10 to 100 nM

---

Overview of reported pIC50 across a group of compounds:
assay.target: KRAS G12D (Homo sapiens (Human), UniProt P01116+P62937, G12D)
Sequence (P01116-2 other isoform, or with tags, fused parts or gaps G12D): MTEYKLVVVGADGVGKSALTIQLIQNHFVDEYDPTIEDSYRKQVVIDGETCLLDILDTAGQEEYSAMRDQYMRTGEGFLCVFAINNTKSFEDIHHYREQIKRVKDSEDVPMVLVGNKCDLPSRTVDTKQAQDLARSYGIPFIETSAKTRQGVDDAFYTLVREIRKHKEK
Sequence (P62937 whole entry): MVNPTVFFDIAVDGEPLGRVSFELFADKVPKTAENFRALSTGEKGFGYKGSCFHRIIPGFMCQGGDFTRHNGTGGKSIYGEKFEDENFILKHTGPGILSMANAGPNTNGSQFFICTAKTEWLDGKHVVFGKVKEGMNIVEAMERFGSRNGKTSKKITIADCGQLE
assay.explanation: Ras-Raf (BRAF RBD) disruption / FRET / MOA assay, KRAS G12D
Format: biochemical
condition.notes: Ras-Raf disruption/FRET/MOA assay; class symbols; read-out: KRAS G12D FRET data IC50
pIC50: −log10 of the molar value.

compound=C=CC(=O)N1CC[C@H](C(=O)N(C)[C@H](C(=O)N[C@H]2Cc3cccc(c3)-c3ccc4c(c3)c(c(-c3ccccc3CCOC)n4CC)CC(C)(C)COC(=O)[C@@H]3CCCN(N3)C2=O)C(C)C)C1 assay_target="KRAS G12D (Homo sapiens (Human), UniProt P01116+P62937, G12D)" meas_value="< 5.00"
compound="CCn1c(-c2cccnc2[C@H](C)OC)c2c3cc(ccc31)-c1cccc(c1)C[C@H](NC(=O)[C@H](C(C)C)N(C)C(=O)[C@H]1CCN(C(=O)C#CC3(N(C)C)CN(C)C3)C1)C(=O)N1CCC[C@H](N1)C(=O)OCC(C)(C)C2 (atropisomer, axis not shown)" assay_target="KRAS G12D (Homo sapiens (Human), UniProt P01116+P62937, G12D)" meas_value="5.00 to 6.00"
compound="CCn1c(-c2cccnc2[C@H](C)OC)c2c3cc(ccc31)-c1cccc(c1)C[C@H](NC(=O)[C@H](C(C)C)N(C)C(=O)C1(F)CCN(C(=O)C#CC(C)(C)N(C)C)CC1)C(=O)N1CCC[C@H](N1)C(=O)OCC(C)(C)C2 (atropisomer, axis not shown)" assay_target="KRAS G12D (Homo sapiens (Human), UniProt P01116+P62937, G12D)" meas_value="5.00 to 6.00"
compound="CCn1c(-c2cccnc2[C@H](C)OC)c2c3cc(ccc31)C1=CCCN(C1)C[C@H](NC(=O)[C@@H](COC1CN(C(=O)C#CC(C)(C)N(C)C)C1)C(C)C)C(=O)N1CCC[C@H](N1)C(=O)OCC(C)(C)C2 (atropisomer, axis not shown)" assay_target="KRAS G12D (Homo sapiens (Human), UniProt P01116+P62937, G12D)" meas_value="< 5.00"
compound="CC#CC(=O)N1CC[C@H](C(=O)N(C)[C@H](C(=O)N[C@H]2Cc3cccc(c3)-c3ccc4c(c3)c(c(-c3cccnc3[C@H](C)OC)n4C#N)CC(C)(C)COC(=O)[C@@H]3CCCN(N3)C2=O)C(C)C)C1 (atropisomer, axis not shown)" assay_target="KRAS G12D (Homo sapiens (Human), UniProt P01116+P62937, G12D)" meas_value="< 5.00"

Query: Input C=CC(=O)N1CC[C@H](C(=O)N(C)[C@H](C(=O)N[C@H]2Cc3cc(O)cc(c3)-c3ccc4c(c3)c(c(C3=C(COC)COCC3)n4CC)CC(C)(C)COC(=O)[C@@H]3CCCN(N3)C2=O)C(C)C)C1 , output reported pIC50.
Response: 5.00 to 6.00

Query: Input C=CC(=O)N1CC[C@H](C(=O)N(C)[C@H](C(=O)N[C@H]2Cc3cccc(c3)-c3ccc4c(c3)c(c(-c3cc(C5CN(C)C5)cnc3[C@H](C)OC)n4CC)CC(C)(C)COC(=O)[C@@H]3CCCN(N3)C2=O)C(C)C)C1 (atropisomer, axis not shown) , output reported pIC50.
Response: < 5.00

Query: Input C=CC(=O)N1CCC(C(=O)N(C)[C@H](C(=O)N[C@H]2Cc3cc(CF)cc(c3)-c3ccc4c(c3)c(c(-c3cccnc3[C@H](C)OC)n4CC(F)(F)F)CC(C)(C)COC(=O)[C@@H]3CCCN(N3)C2=O)C(C)C)C1 (some centres unmarked) , output reported pIC50.
Response: 5.00 to 6.00

---

assay.target: KRAS G13D (Homo sapiens (Human), UniProt P01116+P62937, G13D)
Sequence (P01116-2 other isoform, or with tags, fused parts or gaps G13D): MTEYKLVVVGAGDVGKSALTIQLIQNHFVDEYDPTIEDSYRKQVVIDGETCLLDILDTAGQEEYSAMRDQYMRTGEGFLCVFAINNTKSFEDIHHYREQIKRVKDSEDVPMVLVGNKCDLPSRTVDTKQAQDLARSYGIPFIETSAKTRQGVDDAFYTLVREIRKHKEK
Sequence (P62937 whole entry): as the sequence (P62937 whole entry) above
assay.explanation: Ras-Raf (BRAF RBD) disruption / FRET / MOA assay, KRAS G13D
Format: biochemical
condition.notes: read-out: IC50* KRAS G13D FRET data
Description: The purpose of this biochemical assay is to measure the ability of test compounds to facilitate ternary complex formation between a nucleotide-loaded Ras isoform and cyclophilin A; the resulting ternary complex disrupts binding to a BRAF^RBD construct, inhibiting Ras signaling through a RAF effector. Compound is present in plate wells as a 10-point 3-fold dilution series starting at a final concentration of 30 μM. […]
Overview of reported IC50 across a group of compounds:

Answered cases to consult:
compound="C=CC(=O)N1C[C@H](C)N(C(=O)N(C)[C@H](C(=O)N[C@H]2Cc3nc(cs3)-c3ccc4c(c3)c(c(-c3cccnc3[C@H](C)OC)n4CC)CC(C)(C)COC(=O)[C@@H]3CCCN(N3)C2=O)C(C)C)[C@@H](C)C1 (atropisomer, axis not shown)" meas_value="100 to 1000 nM"
compound=CCn1c(-c2cccnc2COC)c2c3cc(ccc31)-c1cc(O)cc(c1)C[C@H](NC(=O)[C@H](C(C)C)N(C)C(=O)[C@H]1CCN(C(=O)C#CC3(N(C)C)CC3)C1)C(=O)N1CCC[C@H](N1)C(=O)OCC(C)(C)C2 meas_value="1000 to 10000 nM"
compound="C=CC(=O)N1CC2(CCN(C(=O)N(C)[C@H](C(=O)N[C@H]3Cc4nc(cs4)-c4ccc5c(c4)c(c(-c4cccnc4[C@H](C)OC)n5CC)CC(C)(C)COC(=O)[C@@H]4CCCN(N4)C3=O)C(C)C)CC2)C1 (atropisomer, axis not shown)" meas_value="100 to 1000 nM"

Okay, now this compound:
Query: Input C=CC(=O)N1C[C@@H]2[C@H](C1)[C@@H]2C(=O)N(C)[C@H](C(=O)N[C@H]1Cc2cc(O)cc(c2)-c2ccc3c(c2)c(c(-c2cccnc2[C@H](C)OC)n3CC)CC(C)(C)COC(=O)[C@@H]2CCCN(N2)C1=O)C(C)C (atropisomer, axis not shown) , output reported IC50.
Response: 10 to 100 nM

---

assay.target: KRAS G12S (Homo sapiens (Human), UniProt P01116+P62937, G12S)
assay.explanation: Ras-Raf (BRAF RBD) disruption / FRET / MOA assay, KRAS G12S
Format: biochemical
condition.notes: Ras-Raf disruption/FRET/MOA assay; class symbols; read-out: KRAS G12S FRET data IC50
pIC50: −log10 of the molar value.
Overview of reported pIC50 across a group of compounds:

compound="C=CC(=O)N1CC[C@H](C(=O)N(C)[C@H](C(=O)N[C@H]2Cc3cc(CF)cc(c3)-c3ccc4c(c3)c(c(-c3cccnc3[C@H](C)OC)n4CC)CC(C)(C)COC(=O)[C@@H]3CCCN(N3)C2=O)C(C)C)C1 (atropisomer, axis not shown) [Example A503]" meas_value="5.00 to 6.00"

Query: Input C=CC(=O)N1CC[C@H](C(=O)N(C)[C@H](C(=O)N[C@H]2Cc3cc(O)cc(c3)-c3ccc4c(c3)c(c(-c3cccnc3CNC)n4CC)CC(C)(C)COC(=O)[C@@H]3CCCN(N3)C2=O)C(C)C)C1 , output reported pIC50.
Response: 5.00 to 6.00
